Origin of the recorded values: patent US5047419A

Assay: In vitro photodynamic therapy, U251 cells
Format: cell-based, human
Details: human, u251 glioma cells; U251, 1 × 10^-7 M, dark; read-out: % Surviving Fraction, Dark
value kind: viability at 0.1 µM (%)
Report only the number, with the unit % understood.

Record summary for CC(C)(C)C1=CC(=Cc2cc(C(C)(C)C)[te+]c(C(C)(C)C)c2)C=C(C(C)(C)C)[Te]1 [Dye 12] : reported viability at 0.1 µM = 83

The reported viability at 0.1 µM of the compound CC(C)(C)C1=CC(=CC=Cc2cc(C(C)(C)C)[o+]c(C(C)(C)C)c2)C=C(C(C)(C)C)[Te]1.[O-][Cl+3]([O-])([O-])[O-] [Dye 5] was 90
